z-score values for the compounds below.
Assay: budding yeast growth modifiers under rapamycin – strain BY4716, OD600, 96 h, primary screen (AID 1091); note: test concentration not given here
Settings: S. cerevisiae BY4716 + rapamycin, higher = more signal, called active from +8 up or from −8 down
measurementName: z-score

compound=CN(C)CCCC[C@@H]1NC(=O)[C@@H]2C[C@H](C(=O)NCCCCCN)[C@H](c3ccc(O)cc3)N2C1=O measured=0.213
compound=COCC1=C([C@H](O)CCc2ccccc2)[C@H](CO)[C@@H]2C(=O)N(Cc3ccccc3)C(=O)[C@@H]2C1 measured=-0.177
compound=C=C(CCCC)/C(=C/C[C@@H](OC(=O)c1ccncc1)c1ccc(CO)o1)c1cc(C(=O)OC)ccc1OC measured=-0.331
compound="O=C1C2C=CC(C(O)c3ccc(B(O)O)cc3)N(Nc3ccc([N+](=O)[O-])cc3)C2C(=O)N1c1ccccc1 (stereo unspecified)" measured=0.847
compound="O=C1C2C=CC(C(O)CCc3ccccc3)N(Nc3ccccc3)C2C(=O)N1c1ccccc1 (stereo unspecified)" measured=1.43
compound=Cc1ccc(S[C@]2(C(=O)NCCCN(C)C)CC(=O)N(C(C)C)[C@@H]2c2ccc(CO)cc2I)cc1 measured=-1.13

###

Test: plasmodial surface anion channel blockers, osmotic lysis – cell-based, P. falciparum Indochina, OD700, 1 h, primary screen (AID 1154)
Details: P. falciparum Indochina infected RBC osmotic lysis, higher = more signal, called active from +8 up or from −8 down
z-score values for the compounds below.
measurementName: z-score

smi=CCCNC(=O)[C@@]1(C)c2ccccc2C(=O)N(C(C)C)[C@H]1c1ccc(CO)cc1 measured=4.24
smi=CCCCCCC#C[Si](O[C@H](c1ccccc1)c1cn([C@H](C)c2ccccc2)nn1)(C(C)C)C(C)C measured=1.18
smi=COc1ccc([Si](C)(C)[C@@H]2[C@@H](CCO)O[C@]3(C(=O)N(Cc4cccc(N5CCCCC5=O)c4)c4ccccc43)[C@H]2C)cc1 measured=5.77
smi=O=C1c2ccccc2[C@@]2(Cc3ccccc3N(Cc3ccccc3)C2=O)[C@H](c2ccc(CO)cc2)N1Cc1ccccc1C(F)(F)F measured=1.92

###

System: Wnt5a (protein binding on small-molecule microarray)
Assay: small molecules binding Wnt5a protein – biophysical, small-molecule microarray, 635/667 nm fluorescence, primary screen (AID 1142);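 note: fluorescence read at 667 nm with signal to noise per printed feature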
Conditions: 635 nm fluorescence, higher = more signal
Label fulfilled when composite z-score >= 0.07; otherwise not fulfilled.

compound=COc1ccc([Si](C)(C)[C@@H]2[C@@H](CCO)O[C@]3(C(=O)N(Cc4cccc(N5CCCCC5=O)c4)c4ccccc43)[C@H]2C)cc1 system="Wnt5a (protein binding on small-molecule microarray)" answerlabel="not fulfilled"
compound="CC(C)C(O)C1C=CC2C(=O)N(C)C(=O)C2N1N1CCCCC1 (centres undefined)" system="Wnt5a (protein binding on small-molecule microarray)" answerlabel="not fulfilled"
compound="CC1CC/C=C\\[C@H]2OC34C=CCN(c5ccc6ccccc6c5)C(=O)[C@H]3N(CCCCCO)C(=O)[C@@H]4C2C(=O)O1 (some centres undefined)" system="Wnt5a (protein binding on small-molecule microarray)" answerlabel="not fulfilled"
compound="O=C1C2C=CC(C(O)c3cccc4ccccc34)N(n3cnnc3)C2C(=O)N1Cc1ccccc1 (centres undefined)" system="Wnt5a (protein binding on small-molecule microarray)" answerlabel=fulfilled
compound="CC1CC/C=C\\[C@H]2OC34C=CCN(CCN5CCOCC5)C(=O)[C@H]3N(CCCCCO)C(=O)[C@@H]4C2C(=O)O1 (some centres undefined)" system="Wnt5a (protein binding on small-molecule microarray)" answerlabel="not fulfilled"
compound=O=C1c2ccccc2[C@@]2(Cc3ccccc3N(Cc3ccccc3)C2=O)[C@H](c2ccc(CO)cc2)N1Cc1ccccc1C(F)(F)F system="Wnt5a (protein binding on small-molecule microarray)" answerlabel="not fulfilled"
compound=COC(=O)[C@@]1(Cc2ccccc2)[C@H]2c3cc(C(=O)N(C)C)n(Cc4ccccc4)c3C[C@H]2CN1C(=O)c1ccccc1 system="Wnt5a (protein binding on small-molecule microarray)" answerlabel=fulfilled
compound=C=CCOC(=O)[C@@H]1[C@H]2C(=O)O[C@H](c3ccccc3)[C@H](c3ccccc3)N2[C@H](c2ccc(OCCOC(=O)[C@H]3C[C@H]4C(=O)N[C@@H](CCCC[N+](C)(C)C)C(=O)N4[C@H]3c3cccc(OCCO)c3)cc2)[C@@]12C(=O)Nc1ccc(I)cc12 system="Wnt5a (protein binding on small-molecule microarray)" answerlabel=fulfilled
compound="C=CCC(OC(C)=O)[C@@H]1[C@@H](N(Cc2ccc(-c3ccccc3)cc2)C(=O)c2ccc(C)cc2)c2cc(OCCCO)ccc2N1C(=O)Cc1ccc(OC)cc1 (some centres undefined)" system="Wnt5a (protein binding on small-molecule microarray)" answerlabel="not fulfilled"
compound=COc1ccc([Si](C)(C)[C@@H]2[C@@H](CC(=O)N3Cc4ccccc4C[C@H]3CO)O[C@]3(C(=O)N(Cc4cccc(N5C(=O)COc6ccccc65)c4)c4ccccc43)[C@H]2C)cc1 system="Wnt5a (protein binding on small-molecule microarray)" answerlabel="not fulfilled"
compound=COc1ccccc1CN1C(=O)c2ccccc2[C@](Cc2ccccc2I)(C(=O)NC2CC2)[C@@H]1c1ccc(CO)cc1 system="Wnt5a (protein binding on small-molecule microarray)" answerlabel=fulfilled
compound="O=P(NCC1(CC2(c3ccccc3)CO2)CC1)(c1ccccc1)c1ccccc1 (centres undefined)" system="Wnt5a (protein binding on small-molecule microarray)" answerlabel="not fulfilled"
compound=C=CCN1C(=O)[C@@]2(O[C@@H](CCO)[C@H]([Si](C)(C)c3ccc(OC)cc3)[C@H]2C)c2cc(N3C(=O)COc4ccccc43)ccc21 system="Wnt5a (protein binding on small-molecule microarray)" answerlabel=fulfilled
compound=C=C[C@H](C)[C@H](O)c1ccc(OCCO)cc1 system="Wnt5a (protein binding on small-molecule microarray)" answerlabel="not fulfilled"
compound=COc1ccccc1CN1C(=O)c2ccccc2[C@](Cc2ccccc2I)(C(=O)NCc2ccccc2)[C@@H]1c1ccc(CO)cc1 system="Wnt5a (protein binding on small-molecule microarray)" answerlabel=fulfilled
compound=COc1ccc([Si](C)(C)[C@H]2[C@H](CC(=O)N3CCC[C@H]3CO)O[C@@]3(C(=O)N(Cc4cccc(N5CCC5=O)c4)c4ccccc43)[C@@H]2C)cc1 system="Wnt5a (protein binding on small-molecule microarray)" answerlabel=fulfilled
compound="O=C1OCC=C[C@H]2OC34C=CCN(c5ccc6ccccc6c5)C(=O)[C@H]3N(CCO)C(=O)[C@@H]4[C@@H]12 (some centres undefined)" system="Wnt5a (protein binding on small-molecule microarray)" answerlabel="not fulfilled"
compound=C=CC[C@]1(C(=O)O)N=C(c2ccc(OCCCO)cc2)O[C@H]1c1ccccc1CN=[N+]=[N-] system="Wnt5a (protein binding on small-molecule microarray)" answerlabel="not fulfilled"
